Hello, the source for this data is BindingDB's records for doi:10.7270/Q2TX3CSC, in case you need it.

Target: UniProt Q9H2X9
Sequence (Q9H2X9 whole entry): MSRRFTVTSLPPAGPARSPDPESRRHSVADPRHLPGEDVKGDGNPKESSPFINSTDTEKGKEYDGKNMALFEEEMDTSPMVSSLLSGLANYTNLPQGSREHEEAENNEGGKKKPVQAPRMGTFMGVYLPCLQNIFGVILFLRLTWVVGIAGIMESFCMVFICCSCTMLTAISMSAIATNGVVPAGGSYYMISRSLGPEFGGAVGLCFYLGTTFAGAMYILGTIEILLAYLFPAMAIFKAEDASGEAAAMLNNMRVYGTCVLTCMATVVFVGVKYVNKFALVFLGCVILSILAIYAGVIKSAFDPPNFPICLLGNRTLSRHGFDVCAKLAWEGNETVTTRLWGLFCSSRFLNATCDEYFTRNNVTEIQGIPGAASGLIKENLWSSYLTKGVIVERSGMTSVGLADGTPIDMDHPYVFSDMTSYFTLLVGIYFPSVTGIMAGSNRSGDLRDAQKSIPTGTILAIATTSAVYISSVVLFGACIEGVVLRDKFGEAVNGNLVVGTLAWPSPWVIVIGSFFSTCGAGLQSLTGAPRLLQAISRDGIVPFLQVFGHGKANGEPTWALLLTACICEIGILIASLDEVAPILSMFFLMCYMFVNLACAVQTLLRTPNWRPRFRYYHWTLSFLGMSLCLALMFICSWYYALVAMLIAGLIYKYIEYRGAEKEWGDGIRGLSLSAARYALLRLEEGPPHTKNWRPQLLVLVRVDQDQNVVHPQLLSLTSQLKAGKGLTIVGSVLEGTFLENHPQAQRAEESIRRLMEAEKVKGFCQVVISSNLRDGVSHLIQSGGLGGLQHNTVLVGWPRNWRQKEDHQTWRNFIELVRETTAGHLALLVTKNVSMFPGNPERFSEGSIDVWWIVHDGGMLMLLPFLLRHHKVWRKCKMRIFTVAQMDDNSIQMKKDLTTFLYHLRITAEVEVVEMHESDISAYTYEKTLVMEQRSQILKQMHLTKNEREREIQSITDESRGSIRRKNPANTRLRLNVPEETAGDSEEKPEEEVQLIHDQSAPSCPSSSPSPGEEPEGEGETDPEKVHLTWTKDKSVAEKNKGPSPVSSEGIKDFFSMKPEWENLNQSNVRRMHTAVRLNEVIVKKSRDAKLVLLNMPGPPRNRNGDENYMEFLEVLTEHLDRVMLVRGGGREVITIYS
Assay: concentration-response of KCC2 transport modulators – cell-based, HEK293 KCC2, FluoZin-2 fluorescence, dose response (AID 1736)
I'd be grateful if you could share measured log10 EC50 for these entries.
Answers are given as log10 of EC50 in µM.

Example compounds with recorded log10 EC50:
1) O=C(O)CCc1cc(I)c(Oc2ccc(O)c(I)c2)c(I)c1 = 0.73
2) CCc1ccc(Nc2nnc(SCc3cc(=O)n4ccsc4n3)s2)cc1 = -0.69
3) Cn1c(SCc2ccccc2Cl)nc2ccccc21 = 2.41
4) CCc1ccc(OCCNC(=O)c2ccccc2SCc2ccccc2)cc1 = 0.87
5) O=C(NCCc1c[nH]c2ccccc12)c1cc(S(=O)(=O)N2CCCCC2)ccc1N1CCOCC1 = 2.32
6) Cc1[nH]c2ccccc2c1Cc1n[nH]c(=S)n1C = 0.82
7) CCOc1ccc2nc(Sc3cc(O)n(-c4cccc(OC)c4)c3O)sc2c1 = 2.39
8) Fc1cccc(F)c1C=NNC(=S)Nc1cccnc1 = 0.84
9) Cc1ccc(-c2csc(NC(=O)CCNC(=O)c3ccccc3Cl)n2)cc1 = 0.40
10) Cc1cc(C)c(C#N)c(N2CCN(Cc3ccccc3)CC2)n1 = 1.05

Now look at this entry.
# returns recorded log10 EC50 (system: UniProt Q9H2X9) for Cn1c(C(=O)NCCN2CCN(c3ccccc3F)CC2)cc2c(=O)n(C)c3ccccc3c21
0.50
